- subject.of.test: GST tagged LXRalpha LBD (ligand binding domain) (Homo sapiens)
- Construct: purchased Invitrogen pv4655
- Sequence (Q13133 209-447 limits assumed): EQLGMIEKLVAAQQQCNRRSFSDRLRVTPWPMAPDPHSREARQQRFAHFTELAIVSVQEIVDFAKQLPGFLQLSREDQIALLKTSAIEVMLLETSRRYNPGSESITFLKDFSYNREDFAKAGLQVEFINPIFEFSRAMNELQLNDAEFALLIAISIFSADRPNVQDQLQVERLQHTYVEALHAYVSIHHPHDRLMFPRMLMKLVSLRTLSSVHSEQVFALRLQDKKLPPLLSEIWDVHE
- protocol.summary: LanthaScreen TR-FRET Liver X Receptor Coactivator Assay, LXR alpha-LBD
- Type: biochemical
- run.parameters: activity at max dose (efficacy), relative to reference T0901317; read-out: LXR alpha act @ max dose (%)
outcome.measure: Emax (%)

Consider the worked cases shown below.
Emax recorded for this compound, `CN(C)C(=O)c1ccc(N2CCC(C3CCN(C(=O)C4(c5ccccc5)CCC4)CC3)CC2)cc1Cl` , is 38

Emax recorded for this compound, `CN(C)C(=O)c1ccc(N2CCC(C3CCN(S(=O)(=O)c4ccccc4Cl)CC3)CC2)cc1Cl` , is 54

P. CN(C)C(=O)c1ccc(N2CCC(C3CCN(C(=O)C(F)(F)c4ccc(F)cc4)CC3)CC2)cc1Cl
Q. CN(C)C(=O)c1ccc(N2CCC(C3CCN(c4ccccc4Cl)CC3)CC2)cc1Cl
Which has the smaller recorded Emax, P or Q ? Use the label to indicate which entry you chose. Q
(Q: 17%, P: 52%)
